Biological target: TrkB (Homo sapiens (Human), UniProt Q16620 32-430)
Sequence (Q16620 32-430 limits assumed): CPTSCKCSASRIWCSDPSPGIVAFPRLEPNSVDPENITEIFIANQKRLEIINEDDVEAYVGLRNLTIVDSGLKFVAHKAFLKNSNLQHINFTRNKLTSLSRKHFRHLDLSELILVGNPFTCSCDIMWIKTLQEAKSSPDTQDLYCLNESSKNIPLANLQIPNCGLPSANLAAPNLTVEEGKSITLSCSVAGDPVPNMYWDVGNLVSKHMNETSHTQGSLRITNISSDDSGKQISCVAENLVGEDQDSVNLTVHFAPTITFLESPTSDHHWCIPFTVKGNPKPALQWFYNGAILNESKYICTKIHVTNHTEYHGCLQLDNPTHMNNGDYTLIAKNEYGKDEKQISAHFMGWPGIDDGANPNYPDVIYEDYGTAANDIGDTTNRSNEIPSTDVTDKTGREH
Assay: koff of Fab at 25 C; T1/2=Log2/koff
Collected T1/2 values appear next to each entry.
Please state the figure in min; there is no need to write the unit.

Sample records with T1/2:
>  <BINDER>
3-F7 (Fab, V domains shown, Fab) VH: QVQLVQSGAEVKKPGASVKVSCKASGYTFTNYVILWVRQAPGQGLEWMGYINPYNDGTKYNEKFKGRVTMTRDTSTSTVYMELSSLRSEDTAVYYCARLLKYRRFRYYAIDYWGQGTTVTVSS VL: DIQMTQSPSSLSASVGDRVTITCRASENVYSNLAWYQQKPGKAPKLLIYAASNLQSGVPSRFSGSGSGTDFTFTISSLQPEDIATYYCQHFWKSPFTFGQGTKLEIK

>  <UNIT TAG>
min

>  <T1/2>
1.01

$$$$
>  <BINDER>
12-C8 (Fab, V domains shown, Fab) VH: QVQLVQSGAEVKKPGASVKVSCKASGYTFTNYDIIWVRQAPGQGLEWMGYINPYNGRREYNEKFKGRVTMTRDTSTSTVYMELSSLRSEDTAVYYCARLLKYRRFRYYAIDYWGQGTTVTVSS VL: DIQMTQSPSSLSASVGDRVTITCRASKNVYSNLAWYQQKPGKAPKLLIYAASNLQSGVPSRFSGSGSGTDFTFTISSLQPEDIATYYCQHFWGSPFTFGQGTKLEIK

>  <UNIT TAG>
min

>  <T1/2>
8

$$$$

Consider now this further binder.
Input 16-C3 (Fab, V domains shown, Fab) VH: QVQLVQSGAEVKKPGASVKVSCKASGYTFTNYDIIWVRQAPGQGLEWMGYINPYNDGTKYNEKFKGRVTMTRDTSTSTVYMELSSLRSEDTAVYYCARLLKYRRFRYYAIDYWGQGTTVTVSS VL: DIQMTQSPSSLSASVGDRVTITCRASENVYSNLAWYQQKPGKAPKLLIYAASNLQSGVPSRFSGSGSGTDFTFTISSLQPEDIATYYCQQFWYSPFTFGQGTKLEIK . Output T1/2: 1

Source listed as patent US20100196390A1.
